Biological target: Protease (Human immunodeficiency virus 1, UniProt Q9YQ12)
Sequence (Q9YQ12 whole entry): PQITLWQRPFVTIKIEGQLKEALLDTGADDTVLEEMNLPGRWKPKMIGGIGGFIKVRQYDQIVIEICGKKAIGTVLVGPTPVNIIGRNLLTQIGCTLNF
Assay: Inhibition of Human immunodeficiency virus 1 protease using Abz-Thr-Ile-Nle-Phe(p-NO2)-Gln-Arg-NH2 as substrate by fluorescence analysis
observedProperty: pIC50
# pIC50 = -log10(concentration in molar units)

molecularstring=O=C(COc1ccccc1)N[C@@H](Cc1ccccc1)[C@H](O)[C@@H](O)[C@@H]1CCCN1C(=O)COc1ccccc1 measuredon="Protease (Human immunodeficiency virus 1, UniProt Q9YQ12)" observedproperty=pIC50 number=6.21
molecularstring=Cc1cccc(C)c1OCC(=O)N[C@@H](Cc1ccccc1)[C@H](O)[C@@H](O)[C@@H]1CCCN1C(=O)COc1c(C)cccc1C measuredon="Protease (Human immunodeficiency virus 1, UniProt Q9YQ12)" observedproperty=pIC50 number=8.02
molecularstring=CC(=O)N[C@@H](Cc1c[nH]c2ccccc12)C(=O)N[C@H](C(=O)N[C@@H](Cc1ccccc1)[C@H](O)[C@@H](O)[C@@H]1CCCCN1C(=O)[C@@H](NC(=O)[C@H](Cc1c[nH]c2ccccc12)NC(C)=O)C(C)C)C(C)C measuredon="Protease (Human immunodeficiency virus 1, UniProt Q9YQ12)" observedproperty=pIC50 number=8.74

Continue with the next compound.
Need pIC50, item `CC(=O)N[C@@H](Cc1c[nH]c2ccccc12)C(=O)N[C@H](C(=O)N[C@@H](Cc1ccccc1)[C@H](O)[C@@H](O)[C@H](Cc1ccccc1)NC(=O)[C@@H](NC(=O)[C@H](Cc1c[nH]c2ccccc12)NC(C)=O)C(C)C)C(C)C` 8.22
